Listing of recorded pKi by entry.
Biological target: A1 adenosine receptors (Rattus norvegicus)
Construct: A1 adenosine receptors in rat cerebral cortex membranes; from tissue; host or cells: rat cerebral cortex membranes
Assay: inhibition of binding of [3H]N6-phenylisopropyladenosine ([3H]PIA) to A1 adenosine receptors in rat cerebral cortex membranes
pKi: −log10 of the molar value.
measuredAttribute: pKi

>>> print(df.to_string())
                                   compound                            targetorsystem  measuredattribute  measurednumber
0  O=C(Cc1ccc(NC(=O)Cc2ccc(Nc3ncnc4c3ncn4[C@@H]3O[C@H](CO)[C@@H](O)[C@H]3O)cc2)cc1)NCCNC(=S)Nc1cccc(N=C=S)c1  A1 adenosine receptors (Rattus norvegicus)                pKi            9.07
1  CCCn1c(=O)c2[nH]c(-c3ccc(OCC(=O)NCCNC(=O)Cc4ccc(NC(=S)Nc5ccc(N=C=S)cc5)cc4)cc3)nc2n(CCC)c1=O [Compound 15e]  A1 adenosine receptors (Rattus norvegicus)                pKi            7.52
2  O=C(Cc1ccc(NC(=O)Cc2ccc(Nc3ncnc4c3ncn4[C@@H]3O[C@H](CO)[C@@H](O)[C@H]3O)cc2)cc1)NCCN=C=S [Compound 26b]  A1 adenosine receptors (Rattus norvegicus)                pKi            8.40
3  O=C(Cc1ccc(NC(=O)Cc2ccc(Nc3ncnc4c3ncn4[C@@H]3O[C@H](CO)[C@@H](O)[C@H]3O)cc2)cc1)NCCNC(=S)Nc1ccc(N=C=S)cc1  A1 adenosine receptors (Rattus norvegicus)                pKi            9.33

----------
Biological target: A1 adenosine receptors (Rattus norvegicus, UniProt P25099)
Construct: A1 adenosine receptors in rat cerebral cortex membranes; from tissue; host or cells: rat cerebral cortex membranes
Sequence (P25099 whole entry): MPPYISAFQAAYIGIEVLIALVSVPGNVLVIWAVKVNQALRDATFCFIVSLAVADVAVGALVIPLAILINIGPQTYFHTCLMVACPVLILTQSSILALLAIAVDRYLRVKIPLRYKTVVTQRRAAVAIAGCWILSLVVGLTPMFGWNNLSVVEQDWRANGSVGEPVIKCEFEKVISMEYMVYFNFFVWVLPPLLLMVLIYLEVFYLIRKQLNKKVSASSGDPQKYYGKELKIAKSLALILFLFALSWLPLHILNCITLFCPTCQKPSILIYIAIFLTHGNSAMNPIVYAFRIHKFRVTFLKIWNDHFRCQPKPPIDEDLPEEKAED
Test: inhibition of binding of [3H]N6-phenylisopropyladenosine ([3H]PIA) to A1 adenosine receptors in rat cerebral cortex membranes
Details: Table I, rat, against [3H]PIA; read-out: Ki at central A1 receptors, rat
pKi: −log10 of the molar value.
Everything with pKi lower than 8 is NO; everything else, including exactly 8, is YES.

>>> df
                                   molecule  label
0  CCCn1c(=O)c2[nH]c(-c3ccc(OCC(=O)NCCNC(=O)CCCCCCC(=O)ON4C(=O)CCC4=O)cc3)nc2n(CCC)c1=O [Compound 21]    YES
1  CCCn1c(=O)c2[nH]c(-c3ccc(OCC(=O)NCCNC(=O)Cc4ccc(N)cc4)cc3)nc2n(CCC)c1=O [Compound 15d]     NO
2  CCCn1c(=O)c2[nH]c(-c3ccc(OCC(=O)NCC=O)cc3)nc2n(CCC)c1=O [Compound 2b]     NO
3  CCCn1c(=O)c2[nH]c(-c3ccc(OCC(=O)NCCNC(=O)Cc4ccc(NC(=O)OC(C)(C)C)cc4)cc3)nc2n(CCC)c1=O [Compound 15c]     NO
4  CCCn1c(=O)c2[nH]c(-c3ccc(OCC(=O)NCCNC(=O)CCSSc4ccccn4)cc3)nc2n(CCC)c1=O [Compound 22]     NO

----------
Listing of recorded pKi by entry.
Target: central A1 receptors (Bos taurus, UniProt P28190)
Construct: A1 -adenosine receptors in membranes form calf brain; from tissue; host or cells: calf brain membranes
Sequence (P28190 whole entry): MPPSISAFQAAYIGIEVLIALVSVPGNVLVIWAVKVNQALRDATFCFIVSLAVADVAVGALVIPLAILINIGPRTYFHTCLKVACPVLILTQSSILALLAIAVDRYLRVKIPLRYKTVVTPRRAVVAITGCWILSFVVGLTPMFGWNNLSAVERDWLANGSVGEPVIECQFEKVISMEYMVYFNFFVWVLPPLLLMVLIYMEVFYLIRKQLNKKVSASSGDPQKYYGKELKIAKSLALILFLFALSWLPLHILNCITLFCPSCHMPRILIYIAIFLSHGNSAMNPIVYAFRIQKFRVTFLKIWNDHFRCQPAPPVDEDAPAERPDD
Assay: inhibition of radioligand binding at central A1 receptors, calf brain membranes
pKi: −log10 of the molar value.
measuredAttribute: pKi

>>> df
                                   compound  measurednumber
0  O=C(Cc1ccc(NC(=O)Cc2ccc(Nc3ncnc4c3ncn4[C@@H]3O[C@H](CO)[C@@H](O)[C@H]3O)cc2)cc1)NCCNC(=S)Nc1cccc(N=C=S)c1           10.00
1  O=C(Cc1ccc(NC(=O)Cc2ccc(Nc3ncnc4c3ncn4[C@@H]3O[C@H](CO)[C@@H](O)[C@H]3O)cc2)cc1)NCCN=C=S [Compound 26b]            8.60
2  NCCNC(=O)Cc1ccc(NC(=O)Cc2ccc(Nc3ncnc4c3ncn4[C@@H]3O[C@H](CO)[C@@H](O)[C@H]3O)cc2)cc1 [Compound 26a, reference compound]            9.70
3  CCCn1c(=O)c2nc(-c3ccc(OCC(=O)NCCN=C(S)Nc4ccc(N=C=S)cc4)cc3)[nH]c2n(CCC)c1=O            9.00
4  CCCn1c(=O)c2[nH]c(-c3ccc(OCC(=O)NCCNC(=S)Nc4cccc(N=C=S)c4)cc3)nc2n(CCC)c1=O            9.30
5  O=C(Cc1ccc(NC(=O)Cc2ccc(Nc3ncnc4c3ncn4[C@@H]3O[C@H](CO)[C@@H](O)[C@H]3O)cc2)cc1)NCCNC(=S)Nc1ccc(N=C=S)cc1           10.00

----------
Target: rat brain membranes (Rattus norvegicus)
Construct: A1 -adenosine receptors in rat brain membranes; from tissue; host or cells: rat brain membranes
Test: inhibition of [3H]XAC binding to rat brain membranes (blocking experiments)
measuredAttribute: Ki (µM)

                             smilesnotation  units  measurednumber
0  CCCn1c(=O)c2nc(-c3ccc(OCC(=O)NCCN=C(S)Nc4ccc(N=C=S)cc4)cc3)[nH]c2n(CCC)c1=O     µM           0.022

----------
Molecular target: central A1 receptors (Bos taurus, UniProt P28190)
Construct: A1 -adenosine receptors in membranes form calf brain; from tissue; host or cells: calf brain membranes
Assay: inhibition of radioligand binding at central A1 receptors, calf brain membranes
Settings: Table I, calf, against [125I]APNEA; read-out: Ki at central A1 receptors, calf
pKi: −log10 of the molar value.
measuredAttribute: pKi

                                   compound  measuredattribute  measurednumber
0  CCCn1c(=O)c2[nH]c(-c3ccc(OCC(=O)NCCN)cc3)nc2n(CCC)c1=O [Compound 3, reference compound]                pKi            9.70
1  CCCn1c(=O)c2[nH]c(-c3ccc(OCC(=O)NCCNC(=O)CCCCCCC(=O)ON4C(=O)CCC4=O)cc3)nc2n(CCC)c1=O                pKi            7.80
2  CCCn1c(=O)c2[nH]c(-c3ccc(OCC(=O)NCC=O)cc3)nc2n(CCC)c1=O                pKi            8.82

----------
Molecular target: central A1 receptors (Bos taurus)
Construct: A1 -adenosine receptors in membranes form calf brain; from tissue; host or cells: calf brain membranes
Assay: inhibition of radioligand binding at central A1 receptors, calf brain membranes
Conditions: read-out: Ki at central A1 receptors, calf
Listing of recorded Ki by entry.
measuredAttribute: Ki (nM)

>>> df
                             smilesnotation  units  measurednumber
0  CCCn1c(=O)c2[nH]c(-c3ccc(OCC(=O)NCCNC(=O)c4ccc(CBr)cc4)cc3)nc2n(CCC)c1=O     nM             6.9
1  CCCn1c(=O)c2[nH]c(-c3ccc(OCC(=O)NCCNC(=O)CCCCC(C)=O)cc3)nc2n(CCC)c1=O     nM             3.2

----------
Biological target: A1 adenosine receptors (Rattus norvegicus)
Construct: A1 adenosine receptors in rat cerebral cortex membranes; from tissue; host or cells: rat cerebral cortex membranes
Test: inhibition of binding of [3H]N6-phenylisopropyladenosine ([3H]PIA) to A1 adenosine receptors in rat cerebral cortex membranes
Settings: Table I, rat, against [3H]PIA; read-out: Ki at central A1 receptors, rat
Listing of recorded Ki by entry.
measuredAttribute: Ki (nM)

                                   compound                            targetorsystem  measurednumber
0  CCCn1c(=O)c2[nH]c(-c3ccc(OCC(=O)NCCNC(=O)c4ccc(CBr)cc4)cc3)nc2n(CCC)c1=O [Compound 19]  A1 adenosine receptors (Rattus norvegicus)            11.5
1  CCCn1c(=O)c2[nH]c(-c3ccc(OCC(=O)NCCNC(=S)Nc4c(F)c(F)c(F)c(F)c4F)cc3)nc2n(CCC)c1=O [Compound 9]  A1 adenosine receptors (Rattus norvegicus)            9.07
2  CCCn1c(=O)c2nc(-c3ccc(OCC(=O)NCCN=C(S)Nc4ccc(N=C=S)cc4)cc3)[nH]c2n(CCC)c1=O [Compound 4b]  A1 adenosine receptors (Rattus norvegicus)             6.6
3  CCCn1c(=O)c2[nH]c(-c3ccc(OCC(=O)ON4C(=O)CCC4=O)cc3)nc2n(CCC)c1=O [Compound 1]  A1 adenosine receptors (Rattus norvegicus)               9
4  CCCn1c(=O)c2[nH]c(-c3ccc(OCC(=O)NCCNC(=O)CNC(=S)Nc4ccc(N=C=S)cc4)cc3)nc2n(CCC)c1=O [Compound 16c]  A1 adenosine receptors (Rattus norvegicus)            6.85
